These entries and their values trace back to the supplement of paper PMC10567573.

protocol notes: protein stability index of a GFP-peptide fusion (GPS, HEK-293T) (PSI 1-6); higher = more stable;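 also: 24-mer peptide tiles fused after GFP, lentivirally expressed, FACS-sorted into six equal bins by GFP/DsRed ratio, decoded by Illumina sequencing, PSI is the read-weighted mean bin number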
condition description: treatment: MLN4924 1 uM, 8 h; c terminus: a fixed tail appended
Give measured protein stability index for each item. Keep answers brief.
Please respond with just the number, no unit label.

[ask] So what does the record say about protein stability index for DLISKSFQGSQGRAYLFNSVVNVG [YPEL3] ?
[reply] 2.11

[ask] Similarly, LNVATFLDPRYKRLPFLSAFERQQ [ZBED1] ?
[reply] 2.43

[ask] Similarly, VDIGMMKEFILTDEEVQRKREMIL [VDR] ?
[reply] 3.24

[ask] Similarly, KSNNRLKSLSIQYLELDRLVWRNS [FBXO39] ?
[reply] 2.4

[ask] Similarly, AERLGVTFFEVSPLCNFNITESFT [RAB40B] ?
[reply] 2.22

[ask] Similarly, GVIRMWADEGSRNSRFQMLFTSFQ [NETO1] ?
[reply] 2.27

[ask] Similarly, PESADTGDKSESPDEANVGKHPKD [TOR1AIP2] ?
[reply] 5.6

[ask] Similarly, QLRGQLQDLDSRLRAGSSEFDSEH [RASAL3] ?
[reply] 4.9

[ask] Similarly, SNLIRHQRIHAAERLCMGVDCTEI [ZNF263] ?
[reply] 3.18

[ask] Similarly, GTDSAGPKTVPSHVFSELWDLSEA [ELOA2] ?
[reply] 4.39

[ask] Similarly, RKEAYGKPVDIWACGVILYILLVG [CAMK2B] ?
[reply] 2.73

[ask] Similarly, LHSAIYAARPDVKCVVHIHTPAGA [ADD1] ?
[reply] 2.11

[ask] Similarly, IYLATSSSKFYDLFLMECEESPNG [RHOBTB1] ?
[reply] 2.71
